Hey, just so you know, these numbers are from ChEMBL document CHEMBL1134395.

target: Potassium voltage-gated channel subfamily A member 3 (Mus musculus); assay: Blockade of peak steady-state K+ currents of Kv1.3 channels in mouse fibroblasts L929 at 25 uM; assay type: functional
Sequence (P16390 whole entry): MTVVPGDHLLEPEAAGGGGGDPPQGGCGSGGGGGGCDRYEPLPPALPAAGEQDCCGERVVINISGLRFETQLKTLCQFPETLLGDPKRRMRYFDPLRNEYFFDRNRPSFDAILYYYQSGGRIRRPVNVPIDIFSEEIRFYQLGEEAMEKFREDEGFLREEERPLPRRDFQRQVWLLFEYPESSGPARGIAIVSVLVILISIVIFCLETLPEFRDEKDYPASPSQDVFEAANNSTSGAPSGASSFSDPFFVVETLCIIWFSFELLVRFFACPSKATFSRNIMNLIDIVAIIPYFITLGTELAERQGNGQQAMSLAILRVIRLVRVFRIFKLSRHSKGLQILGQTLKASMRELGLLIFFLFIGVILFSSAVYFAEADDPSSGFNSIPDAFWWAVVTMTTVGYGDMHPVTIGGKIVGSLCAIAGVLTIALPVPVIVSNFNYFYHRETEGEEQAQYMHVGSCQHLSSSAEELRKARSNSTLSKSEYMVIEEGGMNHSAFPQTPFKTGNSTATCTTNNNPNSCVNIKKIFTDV
Mark each entry class 1 if its BK sits below 4%, and class 0 for all others.

# compound, label value
records = [
    ("CC(C)c1cc2c(=O)n(C)c3ccccc3c2o1", "class 0"),
    ("Cn1c(=O)c2c(c3cc([N+](=O)[O-])ccc31)OC(C)(C)CC2", "class 0"),
    ("COc1ccc2c(c1)c1c(c(=O)n2C)CCC(C)(C)O1", "class 0"),
    ("COc1ccc2c(c1)c(=O)c1c(n2C)OC(C(C)(C)O)C1 (stereo not drawn)", "class 1"),
    ("COc1ccc2c(c1)c1oc(C(C)C)cc1c(=O)n2C", "class 0"),
    ("COc1ccc2c(c1)c1c(c(=O)n2C)CC(C(C)(C)O)O1 (stereo not drawn)", "class 1"),
    ("Cn1c(=O)c2c(c3ccccc31)OC(C(C)(C)O)C2 (stereo not drawn)", "class 1"),
]

###

biological target: Potassium voltage-gated channel subfamily A member 3 (Mus musculus) (UniProt P16390); settings: at 50 µM
Listing of recorded BK by entry.

# compound, system tested, BK
measured = [
    ("COc1ccc2c(OC)c3ccoc3nc2c1OC", "Potassium voltage-gated channel subfamily A member 3 (Mus musculus) (UniProt P16390)", "13%"),
    ("CC1(C)CCc2c(O)nc3ccccc3c2O1", "Potassium voltage-gated channel subfamily A member 3 (Mus musculus) (UniProt P16390)", "15%"),
    ("CC(C)c1cc2c(=O)c3ccccc3n(C)c2o1", "Potassium voltage-gated channel subfamily A member 3 (Mus musculus) (UniProt P16390)", "23%"),
    ("COc1ccc2c(c1)c1oc(C(C)C)cc1c(=O)n2C", "Potassium voltage-gated channel subfamily A member 3 (Mus musculus) (UniProt P16390)", "98%"),
    ("Cn1c2c(c(=O)c3ccccc31)CC(C(C)(C)O)O2 (stereo unspecified)", "Potassium voltage-gated channel subfamily A member 3 (Mus musculus) (UniProt P16390)", "1%"),
    ("COc1ccc2c(c1)c1c(c(=O)n2C)CC(O)C(C)(C)O1 (stereo unspecified)", "Potassium voltage-gated channel subfamily A member 3 (Mus musculus) (UniProt P16390)", "4%"),
]

###

biological target: Potassium voltage-gated channel subfamily A member 3 (Mus musculus); experiment: Blockade of peak steady-state K+ currents of voltage-gated potassium channel subunit Kv1.3 in mouse fibroblasts L929 at 50 uM; type: functional; conditions: in the assay text read “at different concentrations” for “at 50 uM”
pIC50: −log10 of the molar value.
Listing of recorded pIC50 by entry.

# smiles string, pIC50
records = [
    ("CCCCC/N=c1\\ccn(Cc2ccccc2)c2ccccc12", 6.64),
    ("COc1ccc2c(c1)c1c(c(=O)n2C)C=CC(C)(C)O1", 5.00),
    ("COc1cc2nc3occc3c(OC)c2cc1OC", 4.31),
    ("COc1ccc(CCCN2CCC(COC(c3ccccc3)c3ccccc3)CC2)cc1", 6.55),
    ("COc1ccc2c(c1)c1oc(C(C)C)cc1c(=O)n2C", 5.30),
]

###

target: Potassium voltage-gated channel subfamily A member 3 (Mus musculus) (UniProt P16390); details: at 50 µM
Mark each entry yes if its BK sits below 40%, and no for all others.

# compound, label value
data = [
    ("Cn1c(=O)c2c(c3ccccc31)OC(C)(C)CC2", "no"),
    ("COc1ccc2c(c1)c(=O)c1c(n2C)OC(C)(C)CC1", "yes"),
    ("COc1cc2nc3occc3c(OC)c2cc1OC [KOKUSAGININE]", "no"),
    ("CC1(C)CCc2c(nc3ccccc3c2O)O1", "yes"),
    ("COc1c2ccccc2nc2occc12 [DICTAMNINE]", "yes"),
    ("COc1ccc2c(c1)c1c(c(=O)n2C)CCC(C)(C)O1", "no"),
    ("CC(C)c1cc2c(=O)n(C)c3ccccc3c2o1", "no"),
    ("COc1ccc2c(c1)c(=O)c1cc(C(C)C)oc1n2C", "no"),
]

###

target: Potassium voltage-gated channel subfamily A member 3 (Mus musculus); experiment: Inhibition of voltage-gated potassium channel subunit Kv1.3 expressed in L929 cells; type: functional, cell-based

# smiles string, IC50 (µM)
records = [
    ("COc1ccc2c(c1)c1c(c(=O)n2C)CCC(C)(C)O1", 18),
]

###

test system: N1E-115; experiment: Blockade of peak steady-state Na+ currents of neuroblastoma cells N1E-115 at 100 uM; assay type: functional, Mus musculus

# compound, BNa (%)
rows = [
    ("Cn1c2c(c(=O)c3cc(O)ccc31)CC(C(C)(C)O)O2 (centres undefined)", 13),
    ("CC1(C)Oc2nc3ccccc3c(O)c2CC1SS(=O)(=O)O (centres undefined)", 6),
    ("Cn1c2c(c(=O)c3cc(O)ccc31)CC(O)C(C)(C)O2 (centres undefined)", 3),
    ("CC1(C)Oc2nc3ccccc3c(O)c2CC1O (centres undefined)", 0),
]
